Measured TGI by item
- System: COLO 205 colon
- PROCEDURE_DETAILS: NCI tumour cell line growth inhibition, 48 h

MOLECULE: N#Cc1nc(CCCN2C(=O)c3ccccc3C2=O)oc1N
TGI: > 100 µM

MOLECULE: O=c1oc2ccccc2c(O)c1C=NC(=S)c1ccncc1
TGI: > 100 µM

MOLECULE: Cn1c2c(c3ccccc31)CCN1C(=O)C34CCCC3CC21S4 (stereo not given)
TGI: > 100 µM

MOLECULE: CC(C)(C)OC(=O)NCC(C#N)CNC(=O)OC(C)(C)C
TGI: > 100 µM

MOLECULE: Oc1c(OCc2nnc(CCCCCCCCc3nnc(COc4ccc5ccccc5c4O)o3)o2)ccc2ccccc12
TGI: > 100 µM

MOLECULE: C[C@H](c1ccccc1)N1C(=O)[C@@H](OCc2ccccc2)[C@H]1[C@H](COC(=O)COCc1ccccc1)OCc1ccccc1
TGI: > 100 µM

MOLECULE: O=C(/C=C\Nc1ccccc1O)C(F)(F)F
TGI: 71.1 µM

MOLECULE: C/C(=N/N(C=O)C[n+]1ccccc1)C(CN(CC(C)C)CC(C)C)C(=O)Nc1ccc(C)cc1C (stereo not given)
TGI: > 100 µM

MOLECULE: Cc1cnc2[nH]c(-c3cccc(F)c3)cc(=O)c2c1
TGI: 0.0582 µM

MOLECULE: C[n+]1cc2c3c(ccc2c2ccc4cc5c(cc4c21)OCO5)OCO3
TGI: 0.778 µM

MOLECULE: O=C(O)C1=NN(c2ccc(S(=O)(=O)O)cc2)C2(C1)C(Cl)C(=O)N2c1nc2ccccc2s1 (stereo not given)
TGI: 35.1 µM

MOLECULE: CC[C@H](C)[C@H](NC(=O)c1cnccn1)C(=O)N(C)[C@H](C[C@@H](OC(C)=O)c1nc(C(=O)N[C@@H](Cc2ccccc2)C[C@H](C)C(=O)OC)cs1)C(C)C
TGI: 4.1 µM

MOLECULE: CC(C)c1cccc(C(C)C)c1NC(=O)C(=O)C(C(=O)c1ccccc1-c1ccccc1)C1OC(=O)c2ccccc21 (stereo not given)
TGI: 81.5 µM

MOLECULE: CC(=O)C1(O)CCC2(O)C3(O)CC=C4CC(O)CCC4(C)C3CC(OC(=O)c3ccc(O)cc3)C12C (stereo not given)
TGI: > 100 µM

MOLECULE: CN(C)CCNc1c([N+](=O)[O-])sc2ccc(Cl)cc12
TGI: > 100 µM

MOLECULE: CC(=O)N(CCN)CCN
TGI: > 10 µM

MOLECULE: Nc1nc2c(ncn2Cc2ccccc2CCO)c(=O)[nH]1
TGI: > 100 µM

MOLECULE: Cc1cc2c(cc1C)NC1=C(N2)OC(c2c[nH]c3ccc(COc4ccccc4)cc23)C1=O (stereo not given)
TGI: > 100 µM

MOLECULE: Cn1cc(C2=C(c3cn(C)c4ccc(N)cc34)C(=O)NC2=O)c2ccccc21
TGI: > 20.5 µM

MOLECULE: CC1(C)C(=O)C(O)=CC2C1=CCC1C2(C)C(=O)CC2(C)C(C(C)(O)C(=O)CC(O)C(C)(C)O)C(O)CC12C (stereo not given)
TGI: > 100 µM
